- TESTED_TARGET: Stromelysin-1 (Homo sapiens)
- Sequence (P08254 whole entry): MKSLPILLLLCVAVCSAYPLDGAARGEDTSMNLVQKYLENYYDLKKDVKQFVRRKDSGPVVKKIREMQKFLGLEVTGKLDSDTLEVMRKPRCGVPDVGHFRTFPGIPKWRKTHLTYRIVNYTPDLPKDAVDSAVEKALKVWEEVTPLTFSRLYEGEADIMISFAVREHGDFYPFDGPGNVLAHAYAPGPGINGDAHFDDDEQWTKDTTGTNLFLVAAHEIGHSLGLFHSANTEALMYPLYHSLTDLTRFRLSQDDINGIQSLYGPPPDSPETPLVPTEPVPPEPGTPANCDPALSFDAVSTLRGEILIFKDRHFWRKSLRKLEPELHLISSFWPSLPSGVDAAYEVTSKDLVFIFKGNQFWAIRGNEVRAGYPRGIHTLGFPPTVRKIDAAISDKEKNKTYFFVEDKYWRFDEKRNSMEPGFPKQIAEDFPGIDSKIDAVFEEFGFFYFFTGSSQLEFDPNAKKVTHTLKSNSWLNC
- METHOD_NOTES: Inhibition of Matrix metalloprotease-3
TEST_READOUT: Ki (nM)

Inquiry: I'm curious: which Ki was measured for CC[C@H](C)C(NC(=O)[C@H](CC(C)C)[C@H](C)N(O)C=O)C(=O)Nc1nccs1 (single isomer, unassigned) tested on Stromelysin-1 (Homo sapiens)?
Reply text: 93

[I] CC(C)C[C@@H](C(=O)N[C@H](C(=O)Nc1nccs1)C(C)C)[C@H](C)N(O)C=O
[II] CC(C)C[C@@H](C(=O)N[C@H](C(=O)Nc1nccs1)C(C)(C)C)[C@H](C)N(O)C=O
[III] CNC(=O)[C@@H](NC(=O)[C@H](CC(C)C)[C@H](C)N(O)C=O)C(C)(C)C
Inquiry: # rank by Ki, ascending (min first) List labels; respect the requested ordering.
Reply text: I, II, III
(I: 120 nM, II: 437 nM, III: 2320 nM)

* * *

- METHOD_NOTES: Bioavailability by intravenous administration of 3.4 mg/kg in rat
- Format: ADME, organism-based
- COND: in vivo
TEST_READOUT: bioavailability (%)
Entry rule: numbers only, all in %.

Inquiry: Dear colleague, I am looking for the recorded bioavailability of the following compound: `CC(C)C[C@@H](C(=O)N[C@H](C(=O)Nc1nccs1)C(C)(C)C)[C@H](C)N(O)C=O`
Reply text: 26

* * *

- METHOD_NOTES: Clearance by intravenous administration of 1.2 mg/kg in dog
- Format: ADME, organism-based, Canis lupus familiaris
- Set-up: dose 1.2 mg/kg, route intravenous
- COND: in vivo
TEST_READOUT: clearance (mL/min/kg)
Give the quantity in mL/min/kg, number only.

Inquiry: For the compound shown here, `CC(C)C[C@@H](C(=O)N[C@H](C(=O)Nc1nccs1)C(C)(C)C)[C@H](C)N(O)C=O` , give the reported clearance.
Reply text: 10

* * *

- TESTED_TARGET: Interstitial collagenase (Homo sapiens, UniProt P03956)
- Sequence (P03956 whole entry): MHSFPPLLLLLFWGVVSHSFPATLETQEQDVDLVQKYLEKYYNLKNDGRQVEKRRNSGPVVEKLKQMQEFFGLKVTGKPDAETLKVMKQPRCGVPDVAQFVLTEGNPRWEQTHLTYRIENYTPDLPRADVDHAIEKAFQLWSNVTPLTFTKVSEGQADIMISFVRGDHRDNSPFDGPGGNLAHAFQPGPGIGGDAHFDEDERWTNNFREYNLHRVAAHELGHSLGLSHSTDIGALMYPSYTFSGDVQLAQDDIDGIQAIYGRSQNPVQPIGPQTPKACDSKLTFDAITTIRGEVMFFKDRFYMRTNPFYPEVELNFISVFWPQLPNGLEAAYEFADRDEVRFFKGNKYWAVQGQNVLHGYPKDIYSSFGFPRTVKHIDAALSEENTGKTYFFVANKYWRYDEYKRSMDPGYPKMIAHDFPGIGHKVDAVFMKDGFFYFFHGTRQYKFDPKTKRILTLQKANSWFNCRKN
TEST_READOUT: Ki (nM)

Example entries and their recorded answers appear below.
Inquiry: Given the entry `CNC(=O)[C@@H](NC(=O)[C@H](CC(C)C)[C@H](C)N(O)C=O)C(C)(C)C` , report its measured Ki.
Reply text: 17

Inquiry: Let us now turn to `CNC(=O)[C@@H](NC(=O)[C@@H](CC(=O)NO)CC(C)C)C(C)(C)C`
Reply text: 2

Inquiry: For `CC(C)C[C@@H](C(=O)N[C@@H](CC(C)(C)C)C(=O)Nc1nccs1)[C@H](C)N(O)C=O` then?
Reply text: 170

Inquiry: And what about the compound `CC[C@H](C)[C@H](NC(=O)[C@H](CC(C)C)[C@H](CC)N(O)C=O)C(=O)Nc1nccs1` ?
Reply text: 42

[a] CC[C@@H]([C@@H](CC(C)C)C(=O)N[C@H](C(=O)Nc1ccccn1)C(C)(C)C)N(O)C=O
[b] CC(C)C[C@H](NC(=O)[C@H](CC(C)C)[C@H](C)N(O)C=O)C(=O)Nc1nccs1
[c] CC(C)C[C@@H](C(=O)N[C@H](C(=O)Nc1nccs1)C(C)(C)C)[C@H](C)N(O)C=O
Inquiry: Descending sort on Ki required. To answer, arrange all of the labels according to the requested order.
Reply text: b, a, c
(b: 97 nM, a: 47 nM, c: 27 nM)
